Each item that follows carries a reported inhibition at 1 µM.
tested.on: CDK4/cyclin D3 (Homo sapiens)
Construct: made in house; host or cells: insect cells (baculovirus co-infection)
procedure.summary: Inhibition of CDK4/Cyclin D retinoblastoma kinase activity;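 on % Inhib CDK4/D @ 1 μM: relative to DMSO control wells without compound minus no-enzyme background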
Type: biochemical
recorded.conditions: test compound at 1 μM (head line shifted: 'mM' printed beside 'Structure'); read-out: % Inhib CDK4/D @ 1 μM
experimental.endpoint: inhibition at 1 µM (%)

>>> df
                                    compound  experimental_value
 0  Cc1noc(C)c1C[S+]([O-])c1ccc(Nc2nc(N)c(C(=O)c3c(Cl)cccc3Cl)s2)cc1 (centres unmarked)                72.3
 1  Nc1nc(Nc2cccc(SCCN3CCCC3)c2)sc1C(=O)c1c(Cl)cccc1Cl                62.9
 2  Nc1nc(Nc2ccc(SCCN3CCCCC3)cc2)sc1C(=O)c1c(Cl)cccc1Cl                78.1
 3  CN(c1ccc(S(=O)(=O)CC(O)CO)cc1)c1nc(N)c(C(=O)c2c(Cl)cccc2Cl)s1 (centres unmarked)                26.1
 4  NC(=O)CSc1cccc(Nc2nc(N)c(C(=O)c3c(Cl)cccc3Cl)s2)c1                81.5
 5  COCC[S+]([O-])c1ccc(Nc2nc(N)c(C(=O)c3c(Cl)cccc3Cl)s2)cc1 (centres unmarked)                70.9
 6  Nc1nc(Nc2ccc(SCC3CO3)cc2)sc1C(=O)c1c(Cl)cccc1Cl (centres unmarked)                  72
 7  CN(C)CCCS(=O)(=O)c1ccc(N(C)c2nc(N)c(C(=O)c3c(Cl)cccc3Cl)s2)cc1                 -37
 8  Nc1nc(Nc2cccc(SCCO)c2)sc1C(=O)c1c(Cl)cccc1Cl                78.4
 9  CN1CCCC(CSc2cccc(Nc3nc(N)c(C(=O)c4c(Cl)cccc4Cl)s3)c2)C1 (centres unmarked)                49.1
10  COC(=O)C[S+]([O-])c1ccc(Nc2nc(N)c(C(=O)c3c(Cl)cccc3Cl)s2)cc1 (centres unmarked)                66.8
11  Nc1nc(Nc2cccc([S+]([O-])CCCO)c2)sc1C(=O)c1c(Cl)cccc1Cl (centres unmarked)                61.5
12  CC1(C[S+]([O-])c2ccc(Nc3nc(N)c(C(=O)c4c(Cl)cccc4Cl)s3)cc2)CO1 (centres unmarked)                63.7
13  Nc1nc(Nc2cccc(SCC3CNC(=O)O3)c2)sc1C(=O)c1c(Cl)cccc1Cl (centres unmarked)                54.2
14  CC1(CSc2cccc(Nc3nc(N)c(C(=O)c4c(Cl)cccc4Cl)s3)c2)CO1 (centres unmarked)                80.1
15  NC(=O)CCS(=O)(=O)c1ccc(Nc2nc(N)c(C(=O)c3c(Cl)cccc3Cl)s2)cc1                25.9
16  COc1cccc(C[S+]([O-])c2cccc(Nc3nc(N)c(C(=O)c4c(Cl)cccc4Cl)s3)c2)c1 (centres unmarked)                36.7

====

tested.on: CDK4/cyclin D3 (Homo sapiens)
Construct: made in house; host or cells: insect cells (baculovirus co-infection)
procedure.summary: Inhibition of CDK4/Cyclin D retinoblastoma kinase activity
Type: biochemical
recorded.conditions: test compound at 0.1 μM; 0.1 µM
Description: Cyclin-dependent kinase activity was measured by quantifying the enzyme-catalyzed, time-dependent incorporation of radioactive phosphate from [^32P]ATP or [^33P]ATP into a protein substrate. […] The phosphorylated substrate was then captured on a nitrocellulose or phosphocellulose membrane using a 96-well filtration manifold, and unincorporated radioactivity was removed by repeated washing with 0.85% phosphoric acid. Radioactivity was quantified by exposing the dried membranes to a phosphorimager. […]
Each item that follows carries a reported % Inhib CDK4/D @ 0.1 μM.
experimental.endpoint: % Inhib CDK4/D @ 0.1 μM

In [3]: df
Out[3]:
                                   compound                      tested_on    experimental_endpoint  experimental_value
0  Nc1nc(Nc2ccc(S(=O)(=O)Cc3ncon3)cc2)sc1C(=O)c1c(Cl)cccc1Cl [DD(168)]  CDK4/cyclin D3 (Homo sapiens)  % Inhib CDK4/D @ 0.1 μM                7.8%
1  Nc1nc(Nc2ccc([S+]([O-])CCO)cc2)sc1C(=O)c1c(Cl)cccc1Cl (centres unmarked) [DD(109)]  CDK4/cyclin D3 (Homo sapiens)  % Inhib CDK4/D @ 0.1 μM                 67%
2  Cc1noc(C)c1CS(=O)(=O)c1ccc(Nc2nc(N)c(C(=O)c3c(Cl)cccc3Cl)s2)cc1 [DD(162)]  CDK4/cyclin D3 (Homo sapiens)  % Inhib CDK4/D @ 0.1 μM                 13%
3  CCCS(=O)(=O)c1ccc(Nc2nc(N)c(C(=O)c3c(Cl)cccc3Cl)s2)cc1  CDK4/cyclin D3 (Homo sapiens)  % Inhib CDK4/D @ 0.1 μM                 17%
4  Nc1nc(Nc2ccc(S(=O)(=O)CCN3CCCC3)cc2)sc1C(=O)c1c(Cl)cccc1Cl [DD(207)]  CDK4/cyclin D3 (Homo sapiens)  % Inhib CDK4/D @ 0.1 μM                 41%
5  Nc1nc(Nc2ccc(S(=O)(=O)CC3CO3)cc2)sc1C(=O)c1c(Cl)cccc1Cl (centres unmarked)  CDK4/cyclin D3 (Homo sapiens)  % Inhib CDK4/D @ 0.1 μM                 17%
6  Cc1noc(C)c1CS(=O)(=O)c1ccc(Nc2nc(N)c(C(=O)c3c(Cl)cccc3Cl)s2)cc1 [DD(202)]  CDK4/cyclin D3 (Homo sapiens)  % Inhib CDK4/D @ 0.1 μM                 29%
7  CC(C)CCOC(=O)CS(=O)(=O)c1ccc(Nc2nc(N)c(C(=O)c3c(Cl)cccc3Cl)s2)cc1 [DD(192)]  CDK4/cyclin D3 (Homo sapiens)  % Inhib CDK4/D @ 0.1 μM                 11%

====

Each item that follows carries a reported inhibition at 1 µM.
tested.on: CDK4/cyclin D3 (Homo sapiens)
Construct: made in house; host or cells: insect cells (baculovirus co-infection)
procedure.summary: Inhibition of CDK4/Cyclin D retinoblastoma kinase activity;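 on % Inhib CDK4/D @ 1 μM: relative to DMSO control wells without compound minus no-enzyme background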
Format: biochemical
recorded.conditions: test compound at 1 μM (head line shifted: 'mM' printed beside 'Structure'); read-out: % Inhib CDK4/D @ 1 μM
experimental.endpoint: inhibition at 1 µM (%)

>>> df
                                   compound  experimental_endpoint  experimental_value
0  COC(=O)/C=C/C[S+]([O-])c1cccc(Nc2nc(N)c(C(=O)c3c(Cl)cccc3Cl)s2)c1 (centres unmarked) [DD(124)]     inhibition at 1 µM                38.8
1  CC(=O)OCCSc1ccc(Nc2nc(N)c(C(=O)c3c(Cl)cccc3Cl)s2)cc1 [DD(37)]     inhibition at 1 µM                74.3
2  Nc1nc(Nc2cccc([S+]([O-])Cc3ncon3)c2)sc1C(=O)c1c(Cl)cccc1Cl (centres unmarked) [DD(128)]     inhibition at 1 µM                49.9
3  Nc1nc(Nc2cccc([S+]([O-])CC3CNC(=O)O3)c2)sc1C(=O)c1c(Cl)cccc1Cl (centres unmarked) [DD(129)]     inhibition at 1 µM                33.3
4  Nc1nc(Nc2ccc(SCC3CC3)cc2)sc1C(=O)c1c(Cl)cccc1Cl [DD(16)]     inhibition at 1 µM                56.2
5  COCCSc1ccc(Nc2nc(N)c(C(=O)c3c(Cl)cccc3Cl)s2)cc1 [DD(14)]     inhibition at 1 µM                  80
6  Nc1nc(Nc2ccc([S+]([O-])CC3CO3)cc2)sc1C(=O)c1c(Cl)cccc1Cl (centres unmarked) [DD(92)]     inhibition at 1 µM                65.8
7  CC(C)CCOC(=O)C[S+]([O-])c1ccc(Nc2nc(N)c(C(=O)c3c(Cl)cccc3Cl)s2)cc1 (centres unmarked) [DD(111)]     inhibition at 1 µM                64.8

====

tested.on: CDK4/cyclin D3 (Homo sapiens, UniProt P11802)
Construct: made in house; host or cells: insect cells (baculovirus co-infection)
Sequence (P11802 whole entry): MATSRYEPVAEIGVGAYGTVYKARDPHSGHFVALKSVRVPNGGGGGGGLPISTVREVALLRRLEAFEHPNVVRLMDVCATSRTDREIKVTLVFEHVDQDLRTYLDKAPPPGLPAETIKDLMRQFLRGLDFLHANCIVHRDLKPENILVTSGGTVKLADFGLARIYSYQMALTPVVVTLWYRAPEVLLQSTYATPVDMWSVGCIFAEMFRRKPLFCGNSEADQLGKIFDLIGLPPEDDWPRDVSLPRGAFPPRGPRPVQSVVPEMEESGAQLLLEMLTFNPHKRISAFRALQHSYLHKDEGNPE
Sequence (P30281 1-264 partner limits assumed): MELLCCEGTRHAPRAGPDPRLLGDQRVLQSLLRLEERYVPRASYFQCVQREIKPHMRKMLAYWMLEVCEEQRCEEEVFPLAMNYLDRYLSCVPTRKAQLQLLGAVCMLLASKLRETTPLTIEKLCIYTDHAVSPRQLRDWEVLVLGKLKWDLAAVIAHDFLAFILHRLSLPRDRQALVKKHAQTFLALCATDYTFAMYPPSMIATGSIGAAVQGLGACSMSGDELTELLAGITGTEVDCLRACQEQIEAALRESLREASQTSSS
procedure.summary: Inhibition of CDK4/Cyclin D retinoblastoma kinase activity
Assay type: biochemical
recorded.conditions: test compound at 0.1 μM; 0.1 µM
experimental.endpoint: % Inhib CDK4/D @ 0.1 μM (%)

>>> df
                                    compound  experimental_value
 0  NC(=O)CCS(=O)(=O)c1ccc(Nc2nc(N)c(C(=O)c3c(Cl)cccc3Cl)s2)cc1 [DD(228)]                  29
 1  CC(C)CCS(=O)(=O)c1ccc(Nc2nc(N)c(C(=O)c3c(Cl)cccc3Cl)s2)cc1 [DD(213)]                  14
 2  COCCS(=O)(=O)c1ccc(Nc2nc(N)c(C(=O)c3c(Cl)cccc3Cl)s2)cc1 [DD(214)]                  29
 3  CCN(CC)C(=O)CS(=O)(=O)c1ccc(Nc2nc(N)c(C(=O)c3c(Cl)cccc3Cl)s2)cc1 [DD(201)]                  36
 4  C=CCCS(=O)(=O)c1ccc(Nc2nc(N)c(C(=O)c3c(Cl)cccc3Cl)s2)cc1 [DD(206)]                  24
 5  Nc1nc(Nc2ccc(S(=O)(=O)CCN3CCOCC3)cc2)sc1C(=O)c1c(Cl)cccc1Cl [DD(239)]                  27
 6  CC(C)OC(=O)CS(=O)(=O)c1ccc(Nc2nc(N)c(C(=O)c3c(Cl)cccc3Cl)s2)cc1 [DD(223)]                  35
 7  Nc1nc(Nc2ccc([S+]([O-])CCO)cc2)sc1C(=O)c1c(Cl)cccc1Cl (centres unmarked) [DD(110)]                  27
 8  Nc1nc(Nc2ccc(S(=O)(=O)CCCO)cc2)sc1C(=O)c1c(Cl)cccc1Cl [DD(205)]                  43
 9  CCN(CC)C(=O)CS(=O)(=O)c1ccc(Nc2nc(N)c(C(=O)c3c(Cl)cccc3Cl)s2)cc1 [DD(161)]                  −7
10  Nc1nc(Nc2ccc(S(=O)(=O)CC3CC3)cc2)sc1C(=O)c1c(Cl)cccc1Cl [DD(216)]                  20
11  CC1(CS(=O)(=O)c2ccc(Nc3nc(N)c(C(=O)c4c(Cl)cccc4Cl)s3)cc2)CO1 (centres unmarked) [DD(180)]                  13
12  COC(=O)/C=C/CS(=O)(=O)c1ccc(Nc2nc(N)c(C(=O)c3c(Cl)cccc3Cl)s2)cc1 [DD(164)]                 8.6
13  Nc1nc(Nc2ccc(S(=O)(=O)CCCO)cc2)sc1C(=O)c1c(Cl)cccc1Cl [DD(165)]                  10
14  CC(C)=CCS(=O)(=O)c1ccc(Nc2nc(N)c(C(=O)c3c(Cl)cccc3Cl)s2)cc1 [DD(224)]                  12
15  Nc1nc(Nc2ccc(S(=O)(=O)CCO)cc2)sc1C(=O)c1c(Cl)cccc1Cl [DD(229)]                  23
16  COc1cccc(CS(=O)(=O)c2ccc(Nc3nc(N)c(C(=O)c4c(Cl)cccc4Cl)s3)cc2)c1 [DD(217)]                  39

These entries and their values trace back to patent US20040176431A1.
